Hello, the source for this data is patent US10676471B2, in case you need it.

# Tested on: BT20 Cell
# measurement-notes: Cancer Cell Lysate Total L-Glutamate Assay
# Format: cell-based
# test-settings: Homo sapiens, BT-20, 2 h, total L-glutamate in cell lysate, BT20 cells, 2 hour incubation with test compound
Each entry below carries its reported IC50.

compound	target-or-system	IC50 [nM]
CC(C)C(=O)Nc1nnc(C2CC3(C2)CC(c2nnc(NC(=O)C(C)C)s2)C3)s1 (racemic)	BT20 Cell	8.5
O=C(Cc1ccccn1)Nc1nnc([C@H]2CC3(C[C@H](c4nnc(NC(=O)Cc5ccccn5)s4)C3)C2)s1 (single isomer, unassigned)	BT20 Cell	0.3
O=C(Cc1ccccn1)Nc1nnc(C2CCCC(c3nnc(NC(=O)Cc4ccccn4)s3)C2)s1 (racemic)	BT20 Cell	196
O=C(Cc1ccccn1)Nc1nnc(C[C@H]2C[C@H](c3nnc(NC(=O)Cc4ccccn4)s3)C2)s1 (single isomer, unassigned)	BT20 Cell	9.9
CC(=O)Nc1ccc(C[C@H]2CC[C@@H](c3nnc(NC(=O)Cc4ccccn4)s3)C2)nn1 (single isomer, unassigned)	BT20 Cell	7.1
CC(=O)Nc1nnc(C[C@@H]2CC[C@H](c3nnc(NC(=O)Cc4ccncn4)s3)C2)s1 (single isomer, unassigned)	BT20 Cell	137
O=C(Cc1ccccn1)Nc1nnc(C[C@@H]2CC[C@@H](c3nnc(Nc4ccccn4)s3)C2)s1 (single isomer, unassigned)	BT20 Cell	8.2
CC(=O)Nc1nnc([C@@H]2CC[C@H](Cc3nnc(NC(=O)Cc4cncnc4)s3)C2)s1 (single isomer, unassigned)	BT20 Cell	8750
CC(=O)Nc1nnc(CC2CCC(c3nnc(NC(=O)c4ccccc4)s3)C2)s1 (racemic)	BT20 Cell	989
CC(C)C(=O)Nc1nnc(C2CC3(CC(c4nnc(NC(=O)Cc5ccccn5)s4)C3)C2)s1 (racemic)	BT20 Cell	2.1
O=C(Cc1ccccc1)Nc1nnc(CC2CCC(c3nnc(NC(=O)Cc4ccccc4)s3)C2)s1 (racemic)	BT20 Cell	17
O=C(Cc1ccccn1)Nc1ccc(C[C@H]2CC[C@@H](c3nnc(NC(=O)Cc4ccccn4)s3)C2)nn1 (single isomer, unassigned)	BT20 Cell	2.7
CC(=O)Nc1nnc(C2CC3(C2)CC(c2nnc(NC(C)=O)s2)C3)s1 (racemic)	BT20 Cell	298
C[C@@H](C(=O)Nc1nnc(C[C@@H]2CC[C@H](c3nnc(NC(=O)[C@H](C)c4cccnc4)s3)C2)s1)c1cccnc1 (single isomer, unassigned)	BT20 Cell	19.4
O=C(Cc1ccccn1)Nc1ccc(C[C@@H]2CC[C@H](c3nnc(NC(=O)Cc4ccccn4)s3)C2)nn1 (single isomer, unassigned)	BT20 Cell	0.9
CC(=O)Nc1nnc([C@@H]2CC[C@H](Cc3nnc(NC(=O)Cc4ccccn4)s3)C2)s1 (racemic)	BT20 Cell	4.6
Cn1ccc(Nc2nnc([C@H]3CC[C@@H](Cc4nnc(NC(=O)Cc5ccccn5)s4)C3)s2)n1 (single isomer, unassigned)	BT20 Cell	3.9
CC(=O)Nc1nnc(C2CCC(Cc3nnc(NC(=O)Cc4cnccn4)s3)C2)s1 (racemic)	BT20 Cell	512
Cc1ccc(CC(=O)Nc2nnc(C[C@H]3C[C@@H](c4nnc(NC(=O)Cc5ccccn5)s4)C3)s2)nc1 (single isomer, unassigned)	BT20 Cell	1.2
Cn1ccc(CC(=O)Nc2nnc([C@H]3CC[C@@H](Cc4ccc(NC(=O)Cc5ccccn5)nn4)C3)s2)n1 (single isomer, unassigned)	BT20 Cell	0.5
Nc1nnc(CC2CC[C@@H](c3nnc(NC(=O)Cc4ccccc4)s3)C2)s1 (single isomer, unassigned)	BT20 Cell	1820
CCC(=O)Nc1nnc([C@H]2C[C@@H](Cc3nnc(NC(=O)Cc4ccccn4)s3)C2)s1 (single isomer, unassigned)	BT20 Cell	9.5
C[C@@H](C(=O)Nc1nnc(C[C@H]2CC[C@@H](c3nnc(NC(=O)[C@H](C)c4cccnc4)s3)C2)s1)c1cccnc1 (single isomer, unassigned)	BT20 Cell	284
CC(=O)Nc1nnc(C[C@H]2CC[C@@H](c3nnc(NC(=O)Cc4ccccn4)s3)C2)s1 (single isomer, unassigned)	BT20 Cell	2700
CC(=O)Nc1nnc([C@H]2CC[C@@H](Cc3nnc(NC(=O)Cc4ccc(C)nc4)s3)C2)s1 (single isomer, unassigned)	BT20 Cell	6.8

====

Each entry below carries its reported pIC50.
# Test system: BT20 Cell
# measurement-notes: Cancer Cell Lysate Total L-Glutamate Assay
# Format: cell-based
# test-settings: Homo sapiens, BT-20, 2 h, total L-glutamate in cell lysate, BT20 cells, 2 hour incubation with test compound
# Procedure: Cancer Cell Lysate Total L-Glutamate Assay Cancer cell lines (BT20, HCT116, SKOV3, HCC70, SUM149, MDA-MB-231, etc.) were plated in 96 well plates and were used for the total L-glutamate assay when the monolayer was ca. 80% confluent. […] Total L-glutamate (L-glutamic acid) in the cell lysis supernatant was detected using glutamate oxidase, horseradish peroxidase and Amplex Red reagent (10-acetyl-3,7-dihydroxy phenoxazine, Invitrogen # A22177). […]
pIC50: −log10 of the molar value.

compound	pIC50
CC(=O)Nc1nnc(C[C@H]2C[C@@H](c3nnc(NC(=O)Cc4ccc(C)cn4)s3)C2)s1 (single isomer, unassigned)	8.00
O=C(Cc1ccccn1)Nc1nnc(C2CCC(c3nnc(NC(=O)Cc4ccccn4)s3)C2)s1 (racemic)	6.92
C[C@H](C(=O)Nc1nnc(C[C@H]2CC[C@@H](c3nnc(NC(=O)[C@@H](C)c4cccnc4)s3)C2)s1)c1cccnc1 (single isomer, unassigned)	6.70
O=C(Cc1ccccc1)Nc1ccc(C[C@@H]2CC[C@H](c3nnc(NC(=O)Cc4ccccn4)s3)C2)nn1 (single isomer, unassigned) [Example 82]	10.00
C[C@H](C(=O)Nc1nnc(C[C@@H]2CC[C@H](c3nnc(NC(=O)[C@H](C)c4cccnc4)s3)C2)s1)c1cccnc1 (single isomer, unassigned)	6.87
O=C(Cc1ccccn1)Nc1ccc(C[C@@H]2CC[C@H](c3nnc(NC(=O)c4ccccn4)s3)C2)nn1 (single isomer, unassigned)	8.85
CCNc1nnc(C2CCC(Cc3nnc(NC(C)=O)s3)C2)s1 (racemic)	5.89
CCNc1nnc([C@H]2C[C@@H](Cc3ccc(NC(=O)Cc4ccccc4)nn3)C2)s1 (single isomer, unassigned)	8.62
Cn1cnc(CC(=O)Nc2nnc([C@H]3CC[C@@H](Cc4ccc(NC(=O)Cc5ccccn5)nn4)C3)s2)c1 (relative stereo)	8.70
O=C(Cc1ccccn1)Nc1nnc(C2CC3(C2)CC(c2nnc(NC(=O)Cc4ccccn4)s2)C3)s1 (racemic)	8.80
CC(C)(C)C(=O)Nc1nnc(C[C@@H]2CC[C@H](c3nnc(NC(=O)C(C)(C)C)s3)C2)s1 (single isomer, unassigned)	6.78
O=C(Cc1ccccn1)Nc1ccc([C@H]2C[C@@H](Cc3nnc(NC(=O)Cc4ccccn4)s3)C2)nn1 (single isomer, unassigned)	8.33
CCNc1nnc(C2CCC(Cc3nnc(NC(=O)Cc4ccccn4)s3)C2)s1 (racemic)	7.10
CC(C)C(=O)Nc1nnc([C@H]2CC[C@@H](Cc3ccc(NC(=O)Cc4ccccn4)nn3)C2)s1	9.40
O=C(Cc1ccccn1)Nc1ccc(C[C@H]2CC[C@@H](c3nnc(NC(=O)C[C@H]4CCCO4)s3)C2)nn1 (single isomer, unassigned)	8.51
O=C(Cc1ccccn1)Nc1nnc(C[C@@H]2CC[C@H](c3nnc(Nc4ncccn4)s3)C2)s1 (single isomer, unassigned)	9.30
COCCC(=O)Nc1nnc([C@@H]2CC[C@H](Cc3ccc(NC(=O)Cc4ccccn4)nn3)C2)s1 (single isomer, unassigned)	8.40
CC(=O)Nc1nnc(C[C@H]2CC[C@@H](c3nnc(NC(=O)Cc4cncnc4)s3)C2)s1 (single isomer, unassigned)	5.11
O=C(Cc1ccccn1)Nc1ccc([C@H]2C[C@H](Cc3nnc(NC(=O)Cc4ccccn4)s3)C2)nn1 (single isomer, unassigned)	8.74
O=C(Cc1ccccn1)Nc1nnc(C[C@H]2CC[C@@H](c3nnc(NC(=O)Cc4ccccn4)s3)C2)s1 (racemic) [Example 152]	8.55
CC(=O)Nc1nnc(C[C@H]2C[C@H](c3nnc(NC(C)=O)s3)C2)s1 (single isomer, unassigned)	6.96
CC(=O)Nc1nnc(C[C@H]2C[C@@H](c3nnc(NC(C)=O)s3)C2)s1 (single isomer, unassigned)	7.41
Cn1cnc(C(=O)Nc2nnc(C[C@H]3CC[C@@H](c4nnc(NC(=O)Cc5ccccn5)s4)C3)s2)c1 (racemic)	8.82
O=C(Cc1ccccn1)Nc1nnc(C[C@H]2C[C@@H](c3nnc(NC(=O)Cc4ccccn4)s3)C2)s1 (single isomer, unassigned)	8.85

====

# Tested on: BT20 Cell
# measurement-notes: Cancer Cell Lysate Total L-Glutamate Assay
# Type: cell-based
# test-settings: Homo sapiens, BT-20, 2 h, total L-glutamate in cell lysate, BT20 cells, 2 hour incubation with test compound
pIC50: −log10 of the molar value.
Rule: pIC50 under 9 gives false (0), otherwise true (1).

compound	qualitative-label
CCNc1nnc([C@H]2C[C@H](Cc3ccc(NC(=O)Cc4ccccn4)nn3)C2)s1 (single isomer, unassigned)	false (0)
O=C(Cc1ccccn1)Nc1ccc(CC2CCC(c3nnc(NC(=O)C[C@H]4CCCO4)s3)C2)nn1 (mixture of isomers)	false (0)
O=C(Cc1ccccc1)Nc1ccc(C[C@@H]2CC[C@H](c3nnc(NC(=O)Cc4ccccn4)s3)C2)nn1 [Example 80]	true (1)
CC(=O)Nc1nnc([C@H]2C[C@H](Cc3ccc(NC(=O)Cc4ccccn4)nn3)C2)s1 (single isomer, unassigned)	false (0)
O=C(Cc1ccccn1)Nc1nnc(C[C@H]2CC[C@@H](c3nnc(NC(=O)Cc4ccccn4)s3)C2)s1 (single isomer, unassigned) [Example 4]	false (0)
CC(=O)Nc1ccc(C[C@H]2C[C@@H](c3nnc(NC(=O)Cc4ccccn4)s3)C2)nn1 (single isomer, unassigned)	false (0)
CC(=O)Nc1nnc(C2CCC(Cc3nnc(NC(=O)Cc4ccc(C)nc4)s3)C2)s1 (racemic)	false (0)
CC(=O)Nc1nnc([C@H]2CC[C@@H](Cc3nnc(NC(=O)Cc4ccccc4)s3)C2)s1 (single isomer, unassigned)	false (0)
CCC(=O)Nc1ccc(C[C@@H]2CC[C@H](c3nnc(NC(=O)Cc4ccn(C)n4)s3)C2)nn1 (single isomer, unassigned)	true (1)
COCCC(=O)Nc1nnc([C@H]2CC[C@@H](Cc3ccc(NC(=O)Cc4ccccn4)nn3)C2)s1 (single isomer, unassigned)	true (1)
